system: Escherichia coli; experiment: Inhibition of Escherichia coli FimH-mediated hemagglutinination of guinea pig red blood cells assessed as drug level required for > 90% inhibition of hemagglutinination
parameter: log10(Activity) (log10 of the value in µM)
Plainly stated, the numbers are log10 of Activity given in µM.

Here are 5 molecules together with their reported answers.
- substance.smiles: "CC(=O)Nc1ccccc1O[C@H]1O[C@H](CO)[C@@H](O)[C@H](O)[C@@H]1O"
  parameter: "log10(Activity)"
  measured: 2.10
- substance.smiles: "COC(=O)c1cc2ccc(O[C@H]3O[C@H](CO)[C@@H](O)[C@H](O)[C@@H]3O)cc2s1"
  parameter: "log10(Activity)"
  measured: 0.30
- substance.smiles: "N#Cc1ccccc1-c1ccc(O[C@H]2O[C@H](CO)[C@@H](O)[C@H](O)[C@@H]2O)cc1"
  parameter: "log10(Activity)"
  measured: 0.30
- substance.smiles: "CC(=O)Oc1cccc(O[C@H]2O[C@H](CO)[C@@H](O)[C@H](O)[C@@H]2O)c1"
  parameter: "log10(Activity)"
  measured: 1.20
- substance.smiles: "COc1ccc(O[C@H]2O[C@H](CO)[C@@H](O)[C@H](O)[C@@H]2O)cc1"
  parameter: "log10(Activity)"
  measured: 0.90

// each listed molecule needs a value for log10(Activity)
1. CC(=O)Nc1cccc(-c2ccc(O[C@H]3O[C@H](CO)[C@@H](O)[C@H](O)[C@@H]3O)cc2)c1
2. O=C(O)c1cccc(O[C@H]2O[C@H](CO)[C@@H](O)[C@H](O)[C@@H]2O)c1
3. OC[C@H]1O[C@H](Oc2ccc3ccccc3c2)[C@@H](O)[C@@H](O)[C@@H]1O
4. OC[C@H]1O[C@H](Oc2ccc(-c3cccnc3)cc2)[C@@H](O)[C@@H](O)[C@@H]1O
5. CNS(=O)(=O)c1cccc(-c2ccc(O[C@H]3O[C@H](CO)[C@@H](O)[C@H](O)[C@@H]3O)cc2)c1
6. COC(=O)c1cc(C(=O)OC)cc(-c2ccc(O[C@H]3O[C@H](CO)[C@@H](O)[C@H](O)[C@@H]3O)cc2)c1

Response:
1. 0.30
2. 1.78
3. 0.78
4. 0.30
5. 0.00
6. -0.82

// each listed molecule needs a value for log10(Activity)
1. N#Cc1ccccc1O[C@H]1O[C@H](CO)[C@@H](O)[C@H](O)[C@@H]1O
2. COc1cccc(-c2ccc(O[C@H]3O[C@H](CO)[C@@H](O)[C@H](O)[C@@H]3O)cc2)c1

Response:
0.78
0.18

// each listed molecule needs a value for log10(Activity)
1. OC[C@H]1O[C@H](Oc2ccc(-c3ccncc3)cc2)[C@@H](O)[C@@H](O)[C@@H]1O
2. N#Cc1ccc(O[C@H]2O[C@H](CO)[C@@H](O)[C@H](O)[C@@H]2O)cc1
3. O=C(c1ccccc1)c1cccc(O[C@H]2O[C@H](CO)[C@@H](O)[C@H](O)[C@@H]2O)c1

Response:
[0.30, 1.48, 0.90]

* * *

Please respond with reported Activity for every item in the list.
system: Escherichia coli; assay: Inhibition of Escherichia coli FimH-mediated hemagglutinination of guinea pig red blood cells assessed as drug level required for > 90% inhibition of hemagglutinination
Give bare numbers, in µM.

Here are 3 compounds together with their reported answers.
- substance.smiles: "Cc1ccc(O[C@H]2O[C@H](CO)[C@@H](O)[C@H](O)[C@@H]2O)cc1"
  quantity.unit: "µM"
  Activity: 8
- substance.smiles: "CNS(=O)(=O)c1ccccc1-c1ccc(O[C@H]2O[C@H](CO)[C@@H](O)[C@H](O)[C@@H]2O)cc1"
  quantity.unit: "µM"
  Activity: 4
- substance.smiles: "COC(=O)c1cc(O[C@H]2O[C@H](CO)[C@@H](O)[C@H](O)[C@@H]2O)cc(C(=O)OC)c1"
  quantity.unit: "µM"
  Activity: 2

Query: What value of Activity has been recorded for this entry: "O=C(O)c1cc(C(=O)O)cc(-c2ccc(O[C@H]3O[C@H](CO)[C@@H](O)[C@H](O)[C@@H]3O)cc2)c1"
Response: 2

Attribution: ChEMBL document CHEMBL1177710
